- system: PDGFR-β kinase (Homo sapiens, UniProt P09619)
- Construct: recombinant N-terminal 6×His-tagged PDGFR-β kinase domain construct expressed by baculovirus; 6xHis (N); made in house
- Sequence (P09619 600-962 limits assumed): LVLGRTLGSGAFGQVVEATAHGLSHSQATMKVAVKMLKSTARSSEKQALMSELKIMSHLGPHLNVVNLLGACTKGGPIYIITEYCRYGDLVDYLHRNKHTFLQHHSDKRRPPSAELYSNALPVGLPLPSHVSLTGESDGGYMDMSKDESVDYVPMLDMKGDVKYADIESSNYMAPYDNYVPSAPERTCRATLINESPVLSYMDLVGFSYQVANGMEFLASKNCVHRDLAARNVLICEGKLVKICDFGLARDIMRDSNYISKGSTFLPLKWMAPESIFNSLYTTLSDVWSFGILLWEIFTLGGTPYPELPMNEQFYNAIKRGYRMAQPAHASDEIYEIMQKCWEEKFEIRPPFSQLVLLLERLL
- test_protocol: PDGFR-β kinase assay (33P incorporation into Poly(Glu-Tyr))
- Assay type: biochemical
- conditions_used: 500 nM test compound
Would you mind telling me the reported inhibition at 0.5 µM of each entry?
Return type: number; implicit unit %.

Fill in the recorded inhibition at 0.5 µM for this molecule, with PDGFR-β kinase (Homo sapiens, UniProt P09619) as test system: `O=C(O)CCc1c(/C=C2\C(=O)Nc3ccc(Br)cc32)[nH]c2c1C(=O)CCC2`
89.3

Follow-up item: `CCOC(=O)CCc1c(/C=C2\C(=O)Nc3ccc(-c4ccc(F)cc4)cc32)[nH]c2c1C(=O)CCC2`
4

Follow-up item: `CCOC(=O)CCc1c(/C=C2\C(=O)Nc3cc(-c4ccc(O)c(OC)c4)ccc32)[nH]c2c1C(=O)CCC2`
25.2

Follow-up item: `CCOC(=O)CCc1c(/C=C2\C(=O)Nc3cc(-c4ccc(F)cc4)ccc32)[nH]c2c1C(=O)CCC2`
39.3
